Cited source: paper PMC2849849

assayTarget: α4β2*-nAChR (Mus musculus, UniProt O70174+Q9ERK7)
Sequence (O70174 31-629): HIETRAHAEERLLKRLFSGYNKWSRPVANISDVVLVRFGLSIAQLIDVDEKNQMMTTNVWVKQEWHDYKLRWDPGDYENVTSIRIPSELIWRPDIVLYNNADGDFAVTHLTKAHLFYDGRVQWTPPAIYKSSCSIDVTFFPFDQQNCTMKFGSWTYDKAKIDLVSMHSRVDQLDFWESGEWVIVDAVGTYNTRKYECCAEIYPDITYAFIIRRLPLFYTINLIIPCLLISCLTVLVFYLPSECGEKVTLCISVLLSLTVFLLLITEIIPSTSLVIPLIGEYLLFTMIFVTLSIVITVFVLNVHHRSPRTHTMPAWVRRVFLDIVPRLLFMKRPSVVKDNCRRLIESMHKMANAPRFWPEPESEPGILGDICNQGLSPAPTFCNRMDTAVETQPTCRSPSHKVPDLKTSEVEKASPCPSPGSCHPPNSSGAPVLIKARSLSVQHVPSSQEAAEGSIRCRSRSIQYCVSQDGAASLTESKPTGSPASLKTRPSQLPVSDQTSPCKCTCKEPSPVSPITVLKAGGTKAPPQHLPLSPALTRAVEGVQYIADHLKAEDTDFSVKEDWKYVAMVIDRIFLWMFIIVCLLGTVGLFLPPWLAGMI
Sequence (Q9ERK7 26-501): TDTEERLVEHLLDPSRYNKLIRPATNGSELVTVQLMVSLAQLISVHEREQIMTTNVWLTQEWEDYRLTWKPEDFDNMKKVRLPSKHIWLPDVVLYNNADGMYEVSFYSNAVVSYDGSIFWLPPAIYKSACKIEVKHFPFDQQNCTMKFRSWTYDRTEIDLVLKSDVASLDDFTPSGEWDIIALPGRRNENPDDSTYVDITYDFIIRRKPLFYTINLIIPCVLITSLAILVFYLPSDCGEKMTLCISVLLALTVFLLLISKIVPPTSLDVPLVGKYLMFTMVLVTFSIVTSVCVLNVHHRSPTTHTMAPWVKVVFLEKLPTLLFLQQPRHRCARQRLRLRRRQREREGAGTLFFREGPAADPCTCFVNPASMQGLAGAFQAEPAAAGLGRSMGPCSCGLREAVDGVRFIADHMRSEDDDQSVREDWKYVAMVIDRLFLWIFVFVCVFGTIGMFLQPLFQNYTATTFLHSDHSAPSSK
procedureSummary: α-CtxMII-resistant [3H]-dopamine release from striatal synaptosomes
Type: biochemical
testContext: read-out: Ki α4β2* (1st number, [3H]DA release assay, marked #)
parameterMeasured: pKi
Please keep in mind that pKi is minus log10 of the molar concentration; only the number is needed.

For c1ccc(-c2cncc(C3CC4CCN3CC4)c2)cc1 (stereo not shown) , what is its reported pKi?
6.64

* * *

assayTarget: α3β4*-nAChR (Mus musculus, UniProt Q8R493+Q8R4G9)
Sequence (Q8R4G9 26-499): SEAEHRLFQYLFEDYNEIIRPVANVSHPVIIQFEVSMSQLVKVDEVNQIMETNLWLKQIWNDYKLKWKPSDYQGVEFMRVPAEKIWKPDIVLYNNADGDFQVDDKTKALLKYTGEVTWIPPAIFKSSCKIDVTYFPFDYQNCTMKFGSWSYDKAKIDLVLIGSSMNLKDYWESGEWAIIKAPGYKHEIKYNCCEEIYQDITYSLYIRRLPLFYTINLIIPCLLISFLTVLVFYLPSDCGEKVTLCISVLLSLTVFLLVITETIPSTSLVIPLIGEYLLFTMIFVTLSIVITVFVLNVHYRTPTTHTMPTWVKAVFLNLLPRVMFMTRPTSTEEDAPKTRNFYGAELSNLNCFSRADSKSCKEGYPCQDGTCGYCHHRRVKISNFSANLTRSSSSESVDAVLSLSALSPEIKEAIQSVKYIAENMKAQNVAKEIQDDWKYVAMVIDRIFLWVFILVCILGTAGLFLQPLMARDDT
Sequence (Q8R493 21-495): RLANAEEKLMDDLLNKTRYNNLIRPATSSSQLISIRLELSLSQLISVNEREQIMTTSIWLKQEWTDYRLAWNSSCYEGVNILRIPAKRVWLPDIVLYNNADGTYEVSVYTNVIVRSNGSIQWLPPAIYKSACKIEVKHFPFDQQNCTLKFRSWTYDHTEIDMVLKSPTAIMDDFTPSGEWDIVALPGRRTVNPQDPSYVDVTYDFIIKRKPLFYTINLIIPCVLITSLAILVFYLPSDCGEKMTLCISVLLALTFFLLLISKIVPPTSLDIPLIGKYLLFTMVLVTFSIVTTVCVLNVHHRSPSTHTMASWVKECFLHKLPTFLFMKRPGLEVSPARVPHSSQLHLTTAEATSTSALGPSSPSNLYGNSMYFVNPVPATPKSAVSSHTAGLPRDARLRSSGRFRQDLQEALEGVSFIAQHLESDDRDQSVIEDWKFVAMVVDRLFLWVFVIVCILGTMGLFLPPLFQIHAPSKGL
procedureSummary: [3H]-ACh release from IPN synaptosomes
Assay type: biochemical
testContext: EC50 α3β4*, activation, [3H]ACh release
pEC50 reference
Bear in mind: pEC50 is minus log10 of a mol/L concentration; give just that figure.

Below, 2 compounds whose answers are already recorded.
c1cncc(C2C3CC4CC(C3)CN2C4)c1 (stereo not drawn) [Compound 4]    4.47
c1cncc(C2CCC3CCN2CC3)c1 (stereo not drawn) [Compound 3]    5.66

I'd like to know its pEC50. The compound in question is CN1[C@@H]2CC[C@H]1C=C(c1cncc(Br)c1)C2 [Compound 10]
5.14

* * *

assayTarget: α4β2*-nAChR (Mus musculus, UniProt O70174+Q9ERK7)
procedureSummary: α-CtxMII-resistant [3H]-dopamine release from striatal synaptosomes
Format: biochemical
parameterMeasured: EC50 (µM)
Kindly answer with a numeric value in µM, unit omitted.

CNCC/C=C/c1cccnc1 [Compound 8]    14.8

Below: the item to evaluate.
Using the record for c1cnc2cc3c(cc2n1)[C@@H]1CNC[C@H]3C1 [Varenicline, reference compound] , report its EC50.
0.05

* * *

assayTarget: α3β4*-nAChR (Mus musculus, UniProt Q8R493+Q8R4G9)
procedureSummary: [3H]-ACh release from IPN synaptosomes
Type: biochemical
testContext: [3H]-ACh release from IPN synaptosomes
parameterMeasured: Functional character at α3β4*

c1ccc(-c2cncc(C3CC4CCN3CC4)c2)cc1 (stereo not shown)    full antagonists
CNC(C)C/C=C/c1cncc(C#Cc2ccccc2)c1 (stereo not shown)    full antagonists

* * *

assayTarget: α4β2*-nAChR (Mus musculus, UniProt O70174+Q9ERK7)
procedureSummary: α-CtxMII-resistant [3H]-dopamine release from striatal synaptosomes
Type: biochemical
testContext: EC50 α4β2* (1st number, [3H]DA release assay), activation, curve fit
parameterMeasured: pEC50
Schema: pEC50 number; meaning minus log10 of the concentration expressed in molar units.

CN1[C@@H]2CC[C@H]1C=C(c1cncc(Br)c1)C2    6.75

Now look at this entry.
Notebook entry, α4β2*-nAChR (Mus musculus, UniProt O70174+Q9ERK7) assay: pEC50 of c1cncc(C2C3CCN2CC3)c1 (centres unmarked) = ?
5.98

* * *

assayTarget: α6β2*-nAChR (Mus musculus, UniProt Q9ERK7+Q9R0W9)
Sequence (Q9R0W9 31-494, one chain of several): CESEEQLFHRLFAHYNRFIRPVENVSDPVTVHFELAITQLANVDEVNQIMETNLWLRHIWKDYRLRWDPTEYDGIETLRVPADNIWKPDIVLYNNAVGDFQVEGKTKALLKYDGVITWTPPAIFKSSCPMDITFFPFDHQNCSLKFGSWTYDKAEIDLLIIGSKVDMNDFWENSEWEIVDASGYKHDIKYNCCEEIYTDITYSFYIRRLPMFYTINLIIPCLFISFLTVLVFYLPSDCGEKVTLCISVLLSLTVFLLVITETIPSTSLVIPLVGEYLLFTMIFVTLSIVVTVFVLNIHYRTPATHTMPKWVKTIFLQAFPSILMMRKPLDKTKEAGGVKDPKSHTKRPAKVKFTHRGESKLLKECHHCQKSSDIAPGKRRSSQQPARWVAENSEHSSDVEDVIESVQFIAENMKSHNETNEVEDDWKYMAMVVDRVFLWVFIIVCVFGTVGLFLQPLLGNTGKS
Sequence (Q8BMN3 31-464 partner, one chain of several): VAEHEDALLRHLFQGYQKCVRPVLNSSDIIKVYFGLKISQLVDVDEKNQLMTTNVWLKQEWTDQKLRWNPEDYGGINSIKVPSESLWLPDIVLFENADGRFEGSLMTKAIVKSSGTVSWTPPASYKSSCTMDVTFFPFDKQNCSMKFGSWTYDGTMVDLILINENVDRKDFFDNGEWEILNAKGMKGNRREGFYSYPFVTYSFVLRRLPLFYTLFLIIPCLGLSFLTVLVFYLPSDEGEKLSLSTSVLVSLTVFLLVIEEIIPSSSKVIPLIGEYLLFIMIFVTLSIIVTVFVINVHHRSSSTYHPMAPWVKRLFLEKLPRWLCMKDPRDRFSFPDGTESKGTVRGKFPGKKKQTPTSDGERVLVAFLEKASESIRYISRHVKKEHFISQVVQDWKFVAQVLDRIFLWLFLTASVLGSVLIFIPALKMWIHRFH
procedureSummary: α-CtxMII-sensitive [3H]-dopamine release from striatal synaptosomes
Assay type: biochemical
parameterMeasured: pEC50
Quick note: pEC50 values are minus log10 of concentrations in mol/L.

Dear colleague, I am looking for the recorded pEC50 of the following compound: c1cnc2cc3c(cc2n1)[C@@H]1CNC[C@H]3C1 [Varenicline, reference compound]
7.11

* * *

Assay system α7-nAChR (Mus musculus); read-out recorded as Ki.
Kindly provide the numeric value in nM only, without the unit symbol.

Consider the reported Ki for these compounds:
c1cncc(C2C3CC4CC(C3)CN2C4)c1 (stereo not shown)    64.5
c1cncc(C2CCC3CCN2CC3)c1 (stereo not shown)    2.2
c1cnc2cc3c(cc2n1)[C@@H]1CNC[C@H]3C1 [Varenicline, reference compound]    42

Then this compound:
Lookup: Ki / α7-nAChR (Mus musculus) / CNC(C)C/C=C/c1cncc(C#Cc2ccccc2)c1 (stereo not shown)
30700
